- target: Gonadotropin-releasing hormone receptor (Rattus norvegicus) (UniProt P30969)
- Sequence (whole entry): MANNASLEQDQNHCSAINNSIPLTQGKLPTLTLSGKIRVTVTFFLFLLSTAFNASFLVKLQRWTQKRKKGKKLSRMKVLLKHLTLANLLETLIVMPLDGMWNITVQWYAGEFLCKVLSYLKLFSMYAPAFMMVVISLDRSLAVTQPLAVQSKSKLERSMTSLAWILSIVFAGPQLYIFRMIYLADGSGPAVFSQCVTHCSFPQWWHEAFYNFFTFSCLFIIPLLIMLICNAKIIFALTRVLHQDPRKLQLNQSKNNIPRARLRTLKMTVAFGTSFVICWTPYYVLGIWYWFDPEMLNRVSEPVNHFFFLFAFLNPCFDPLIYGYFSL
- test-protocol: Agonist activity at LH-RH receptor in Sprague-Dawley rat pituitary gland assessed as change in follicle-stimulating hormone release at 100 ug/ml incubated for 4 hrs measured every hour for 4 hrs by RIA
Square brackets hold non-standard residues; d marks the D form. Peptide text beside a SMILES is read from it. pGlu = O=C1CC[C@@H](C(=O)O)N1
reported-endpoint: Activity (ng/mL)

[I] CC(C)C[C@H](NC(=O)CNC(=O)[C@H](Cc1ccc(O)cc1)NC(=O)[C@H](CO)NC(=O)[C@H](CC(N)=O)NC(=O)[C@H](CC(C)C)NC(=O)[C@@H]1CCC(=O)N1)C(=O)N[C@@H](CCCNC(=N)N)C(=O)N1CCC[C@H]1C(=O)NCC(N)=O ([pGlu]LNSYGLRPG-NH2)
[II] CC(C)C[C@H](NC(=O)[C@@H]1CCC(=O)N1)C(=O)N[C@@H](C)C(=O)N[C@@H](CO)C(=O)N[C@@H](Cc1ccc(O)cc1)C(=O)N[C@H](C)C(=O)N[C@@H](CC(C)C)C(=O)N[C@@H](CCCNC(=N)N)C(=O)N1CCC[C@H]1C(=O)NCC(N)=O
[III] CCNC(=O)[C@@H]1CCCN1C(=O)[C@H](CCCNC(=N)N)NC(=O)[C@H](CC(C)C)NC(=O)[C@@H](C)NC(=O)[C@H](Cc1ccc(O)cc1)NC(=O)[C@H](CO)NC(=O)[C@H](C)NC(=O)[C@H](CC)NC(=O)[C@@H]1CCC(=O)N1
[IV] CCNC(=O)[C@@H]1CCCN1C(=O)[C@H](CCCNC(=N)N)NC(=O)[C@H](CC(C)C)NC(=O)[C@@H](C)NC(=O)[C@H](Cc1ccc(O)cc1)NC(=O)[C@H](CO)NC(=O)[C@H](C)NC(=O)[C@@H](NC(=O)[C@@H]1CCC(=O)N1)[C@@H](C)CC
Query: Order the items by recorded Activity; the first position goes to the largest value. Sort the labels as requested; that list is your answer.
Result: IV, III, II, I
(IV: 1020 ng/mL, III: 184 ng/mL, II: -351 ng/mL, I: -1270 ng/mL)
